# measured.target: h5-HT6R (Homo sapiens)
# Construct: expressed in transfected cells
# Sequence (P50406 whole entry): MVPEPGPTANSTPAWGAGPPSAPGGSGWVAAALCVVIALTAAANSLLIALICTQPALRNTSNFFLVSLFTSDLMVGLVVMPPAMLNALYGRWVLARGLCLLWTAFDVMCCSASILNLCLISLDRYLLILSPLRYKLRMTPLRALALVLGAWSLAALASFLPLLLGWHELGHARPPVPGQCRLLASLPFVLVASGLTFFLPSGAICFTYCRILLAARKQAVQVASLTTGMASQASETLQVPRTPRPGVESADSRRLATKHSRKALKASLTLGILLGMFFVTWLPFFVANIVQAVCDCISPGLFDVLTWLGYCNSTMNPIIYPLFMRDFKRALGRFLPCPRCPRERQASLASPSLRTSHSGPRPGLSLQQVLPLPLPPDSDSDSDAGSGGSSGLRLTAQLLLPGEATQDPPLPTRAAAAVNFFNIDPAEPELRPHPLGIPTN
# experiment: 5-HT6R radioligand binding ([3H]-LSD) in HEK293 cells stably expressing h5-HT6R
# condition.context: 2 nM [3H]-LSD, mean of three independent experiments, read-out: Ki ± SEM [nM] 5-HT6R
outcome.measure: Ki (nM)
Expressed in nM, but write only the number.

Reference set, count: 8
{"compound": "Cl.Clc1cccc(Cn2ccc3c(C4=CCNCC4)nc4ccccc4c32)c1 [Compound 22]", "Ki / nM": 34}
{"compound": "Cl.c1ccc(Cn2ccc3c(N[C@H]4CCNC4)nc4ccccc4c32)cc1 [Compound 3]", "Ki / nM": 21}
{"compound": "Cl.Clc1cccc(Cn2ccc3c(CN4CCNCC4)nc4ccccc4c32)c1 [Compound 24]", "Ki / nM": 119}
{"compound": "COc1cccc(Cn2ccc3c(N[C@H]4CCNC4)nc4ccccc4c32)c1.Cl [Compound 8]", "Ki / nM": 25}
{"compound": "Cl.Clc1cccc(Cn2ccc3c(N4CC5(CNC5)C4)nc4ccccc4c32)c1 [Compound 21]", "Ki / nM": 920}
{"compound": "Cl.Clc1cccc(CNc2cc(N3CCNCC3)nc3ccccc23)c1 [Compound 25]", "Ki / nM": 152}
{"compound": "CN(C)C1CCN(c2nc3ccccc3c3c2ccn3Cc2cccc(Cl)c2)CC1.Cl [Compound 19]", "Ki / nM": 1270}
{"compound": "Cl.Clc1cccc(Cn2ccc3c(N[C@@H]4CCNC4)nc4ccccc4c32)c1 [Compound 6]", "Ki / nM": 30}

Observed Ki, h5-HT6R (Homo sapiens), Brc1cccc(Cn2ccc3c(N[C@H]4CCNC4)nc4ccccc4c32)c1.Cl [Compound 7] : 10

Observed Ki, h5-HT6R (Homo sapiens), Cl.Clc1cccc(Cn2ccc3c(C4CCNCC4)nc4ccccc4c32)c1 [Compound 23] : 541

Observed Ki, h5-HT6R (Homo sapiens), Cl.Clc1cccc(Cn2ccc3c(N4CC5(CCNC5)C4)nc4ccccc4c32)c1 [Compound 20] : 677

Observed Ki, h5-HT6R (Homo sapiens), Cl.Clc1cccc(Cn2ccc3c(NC[C@@H]4CCCN4)nc4ccccc4c32)c1 [Compound 10] : 226

Observed Ki, h5-HT6R (Homo sapiens), Cl.Clc1cccc(Cn2ccc3c(N4CCCNCC4)nc4ccccc4c32)c1 [Compound 17] : 138

Observed Ki, h5-HT6R (Homo sapiens), Cl.Clc1cccc(Cn2ccc3c(NC[C@H]4CCCN4)nc4ccccc4c32)c1 [Compound 9] : 214

Observed Ki, h5-HT6R (Homo sapiens), Cl.Clc1cccc(Cn2ccc3c(N[C@H]4CCNC4)nc4ccccc4c32)c1 [Compound 5] : 7

Observed Ki, h5-HT6R (Homo sapiens), Cl.Clc1cccc(Cn2ccc3c(NC[C@@H]4CCNC4)nc4ccccc4c32)c1 [Compound 12] : 122

Observed Ki, h5-HT6R (Homo sapiens), CNC1CN(c2nc3ccccc3c3c2ccn3Cc2cccc(Cl)c2)C1.Cl [Compound 15] : 723

Observed Ki, h5-HT6R (Homo sapiens), Cl.NC[C@@H]1CCN(c2nc3ccccc3c3c2ccn3Cc2cccc(Cl)c2)C1 [Compound 14] : 1520
